Test system: CD8+ cells propagated from islets of NOD mice
assay-explanation: IFN-γ secretion by islet-derived CD8+ T-cells in response to IGRP peptides
Type: cell-based, mouse
measurement-context: peptide 10 μM, pre-diabetic or acutely diabetic NOD mice
metric-name: mice with islet CD8+ T-cells responding to the peptide (IFN-γ secretion)

| seq-string | result |
| --- | --- |
| VYLKTNVFL [IGRP206-214] | most mice |
| YLKTNVFLF [IGRP207-215] | most mice |

Attribution: patent US8758767B2
